# Experiment notes: Antagonist activity at human EGFP-fused CCR3 expressed in mouse L1.2 cells assessed as inhibition of CCL11-induced chemotaxis measured after 1.5 hrs by PicoGreen dsDNA reagent-based assay
This section presents compounds with their documented EC50 values.
Measurement kind: EC50 (nM)

1. C=CCc1cc(OC)c(O[C@@H](C)[C@H](OC(C)=O)c2ccc(OC)c(OC)c2)c(OC)c1 ... 1400
2. COC(=O)[C@H](Cc1ccc([N+](=O)[O-])cc1)NC(=O)c1cccc2ccccc12 ... 780
3. C=CCc1cc(OC)c(O[C@H](C)[C@@H](O)c2cc(OC)c(O)c(OC)c2)c(OC)c1 ... 1500
4. C/C=C/c1cc(OC)c2c(c1)[C@@H](C)[C@H](c1cc(OC)c(O)c(OC)c1)O2 ... 1600
